# tested-on: T1, IL10Rα/IL2Rγ receptor (human, UniProt Q13651 22-578; P31785 23-369)
# T1 sequence (looked up) 1: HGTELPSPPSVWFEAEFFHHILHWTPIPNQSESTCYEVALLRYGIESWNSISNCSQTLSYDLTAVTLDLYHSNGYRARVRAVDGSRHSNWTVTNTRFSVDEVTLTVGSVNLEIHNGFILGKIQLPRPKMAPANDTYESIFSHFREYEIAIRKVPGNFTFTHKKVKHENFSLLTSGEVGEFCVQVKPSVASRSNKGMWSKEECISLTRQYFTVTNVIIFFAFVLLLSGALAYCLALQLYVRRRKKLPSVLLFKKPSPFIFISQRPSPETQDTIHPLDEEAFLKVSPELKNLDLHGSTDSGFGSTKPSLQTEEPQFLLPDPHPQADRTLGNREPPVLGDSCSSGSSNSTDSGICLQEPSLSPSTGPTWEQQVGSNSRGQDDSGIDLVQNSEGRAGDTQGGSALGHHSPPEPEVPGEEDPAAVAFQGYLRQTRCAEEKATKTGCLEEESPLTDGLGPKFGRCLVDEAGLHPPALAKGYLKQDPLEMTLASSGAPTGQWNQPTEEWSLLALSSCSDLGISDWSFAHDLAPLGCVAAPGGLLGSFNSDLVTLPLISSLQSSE
# T1 sequence (looked up) 2: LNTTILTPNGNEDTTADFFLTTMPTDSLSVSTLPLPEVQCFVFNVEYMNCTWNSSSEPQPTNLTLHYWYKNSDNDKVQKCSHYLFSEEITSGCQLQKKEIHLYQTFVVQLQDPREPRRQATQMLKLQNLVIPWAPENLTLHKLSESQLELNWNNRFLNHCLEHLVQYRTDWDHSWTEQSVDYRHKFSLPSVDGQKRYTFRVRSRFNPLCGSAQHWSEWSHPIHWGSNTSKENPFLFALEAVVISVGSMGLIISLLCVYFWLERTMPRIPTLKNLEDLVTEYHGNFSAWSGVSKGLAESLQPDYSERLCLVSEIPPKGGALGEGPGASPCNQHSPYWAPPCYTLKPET
# assay-explanation: cell-based or functional assay
reported-property: pSTAT3 MFI, NK cells, 100 nM (unstimulated 1315) (MFI)
Form entry: value (MFI) — number only.

A selection of reference data follows.
>  <binder>
DR471(DR241-DR231) (bispecific antibody) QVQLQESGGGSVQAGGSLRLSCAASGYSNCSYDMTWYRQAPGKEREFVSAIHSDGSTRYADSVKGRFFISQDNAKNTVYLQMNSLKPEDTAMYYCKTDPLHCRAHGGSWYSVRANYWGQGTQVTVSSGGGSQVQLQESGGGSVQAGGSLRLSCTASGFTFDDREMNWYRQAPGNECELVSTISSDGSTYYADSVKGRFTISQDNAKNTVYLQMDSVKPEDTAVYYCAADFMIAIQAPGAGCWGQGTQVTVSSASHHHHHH

>  <assay-result>
1940

$$$$
>  <binder>
DR395(DR229-DR239) (bispecific antibody) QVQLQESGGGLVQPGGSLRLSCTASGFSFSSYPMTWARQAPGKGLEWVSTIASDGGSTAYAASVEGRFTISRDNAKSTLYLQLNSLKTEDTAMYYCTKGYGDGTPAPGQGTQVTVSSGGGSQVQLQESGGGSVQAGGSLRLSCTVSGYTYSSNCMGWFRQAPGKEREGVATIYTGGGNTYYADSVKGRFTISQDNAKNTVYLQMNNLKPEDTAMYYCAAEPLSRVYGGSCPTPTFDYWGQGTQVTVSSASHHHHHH

>  <assay-result>
1760

$$$$
>  <binder>
DR465(DR240-DR231) (bispecific antibody) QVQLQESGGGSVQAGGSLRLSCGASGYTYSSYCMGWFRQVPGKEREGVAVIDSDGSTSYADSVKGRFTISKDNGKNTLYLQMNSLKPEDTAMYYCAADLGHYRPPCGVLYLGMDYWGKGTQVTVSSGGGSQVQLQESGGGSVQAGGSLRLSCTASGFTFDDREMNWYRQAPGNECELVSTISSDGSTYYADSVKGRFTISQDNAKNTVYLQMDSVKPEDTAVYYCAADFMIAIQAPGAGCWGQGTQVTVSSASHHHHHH

>  <assay-result>
2130

$$$$

Now consider a different binder.
Reported pSTAT3 MFI, NK cells, 100 nM (unstimulated 1315) ( DR441(DR236-DR231) (bispecific antibody) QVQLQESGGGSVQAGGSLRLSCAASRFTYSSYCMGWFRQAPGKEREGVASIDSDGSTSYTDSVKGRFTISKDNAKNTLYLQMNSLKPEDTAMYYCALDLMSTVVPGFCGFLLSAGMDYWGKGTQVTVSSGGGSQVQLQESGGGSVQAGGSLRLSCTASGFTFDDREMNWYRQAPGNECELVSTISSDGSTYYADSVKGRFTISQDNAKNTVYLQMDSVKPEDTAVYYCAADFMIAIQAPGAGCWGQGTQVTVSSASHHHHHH ) = 1770
